Values were extracted from patent US9085576B2.

Assayed Target: UniProt P56817
Sequence (P56817 46-501): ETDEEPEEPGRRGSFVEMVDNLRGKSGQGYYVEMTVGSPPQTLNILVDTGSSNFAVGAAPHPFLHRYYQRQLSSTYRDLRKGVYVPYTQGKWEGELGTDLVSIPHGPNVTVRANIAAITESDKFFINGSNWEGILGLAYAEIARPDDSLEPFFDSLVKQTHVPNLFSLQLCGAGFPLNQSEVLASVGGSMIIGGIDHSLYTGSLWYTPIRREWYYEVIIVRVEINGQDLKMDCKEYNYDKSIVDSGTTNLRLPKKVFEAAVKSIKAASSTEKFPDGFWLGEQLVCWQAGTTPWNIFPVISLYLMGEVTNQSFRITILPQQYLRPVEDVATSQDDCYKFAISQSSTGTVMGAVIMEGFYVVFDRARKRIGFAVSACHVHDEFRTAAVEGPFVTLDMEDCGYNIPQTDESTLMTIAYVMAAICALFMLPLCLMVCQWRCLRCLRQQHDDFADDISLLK
Protocol Details: In vitro enzymatic BACE FRET assay
Assay type: biochemical
Measurement Context: read-out: BACE1 Enzyme assay IC50
pIC50: −log10 of the molar value.
Quantity Kind: pIC50

Guide cases for pIC50, answers given:
>>> reported_measurement("CC#CCOc1cnc(C(=O)Nc2cc(F)c(F)c([C@@]3(CF)N=C(N)O[C@@H]4C[C@@H]43)c2)cn1")
8.80
>>> reported_measurement("C[C@@H](Nc1ccc(F)c([C@@]2(C(F)F)N=C(N)O[C@@H]3C[C@@H]32)c1)c1ccc(Cl)cn1 (mixture of isomers)")
4.86
>>> reported_measurement("Cc1nc(OCC(F)(F)F)cnc1C(=O)Nc1cc(F)c(Cl)c([C@]2(CF)N=C(N)O[C@H]3C[C@H]32)c1 (racemic) [Example 159]")
6.65
>>> reported_measurement("N#Cc1cnc2c(Nc3ccc(F)c([C@@]4(CF)N=C(N)O[C@@H]5C[C@@H]54)c3)ncnc2c1")
6.70

P = NC1=N[C@@](CF)(c2cc(NC(=O)c3ccc(Cl)cn3)cnc2F)[C@@H]2C[C@@H]2O1
Q = NC1=N[C@@](c2cc(NC(=O)c3cnc(OCC4CCOC4)cn3)ccc2F)(C(F)F)[C@H]2C[C@H]2O1 (mixture of isomers)
R = C#CCOc1cnc(C(=O)Nc2cc(F)c(Cl)c([C@@]3(CF)N=C(N)O[C@@H]4C[C@@H]43)c2)cn1
S = NC1=N[C@@](c2cc(NC(=O)c3ncc(Cl)cn3)ccc2F)(C(F)F)[C@H]2C[C@H]2O1
T = N#Cc1ccc(C(=O)Nc2ccc(F)c([C@@]3(CF)N=C(N)O[C@@H]4C[C@@H]43)c2)nc1
Request: # rank by pIC50, ascending (min first) Provide the ranking by listing each label in its place in the requested order.
Result: P, Q, S, T, R

I = COc1cnc2c(Nc3ccc(F)c([C@]4(C)N=C(N)O[C@H]5C[C@H]54)c3)nccc2c1
II = Cc1csc(C(=O)Nc2ccc(F)c([C@@]3(C(F)F)N=C(N)O[C@@H]4C[C@@H]43)c2)c1
Request: Hi team, can someone confirm which has the larger pIC50: I or II ? Thanks. Response format: the label of the selected entry.
Result: II
